Values from patent US8193189B2

Here's what we have: IC50 numbers for GST-JAK1(866-1154) (Homo sapiens).
The reply should consist of the numeric value with the unit placed after it.

Problem: Hello, I am looking for reported IC50 with GST-JAK1(866-1154) (Homo sapiens) for COCCOc1ccc(-c2cnc3cccc(-c4ccc(CN5CCS(=O)(=O)CC5)c(C)c4)c3n2)cc1OC [Example 52] . Could you help?
Solution: 97.5 nM

Problem: What value of IC50 on GST-JAK1(866-1154) (Homo sapiens) does CCN1CCN(c2ccc(-c3cnc4cccc(-c5cc(F)c(CN6CCOCC6)c(F)c5)c4n3)cc2C)CC1 [Example 103] have?
Solution: 1150 nM

Problem: Notebook: pull reported IC50 for GST-JAK1(866-1154) (Homo sapiens), entry O=C(c1c(F)cc(-c2cccc3ncc(-c4cnn(C5CCNCC5)c4)nc23)cc1F)N1CCOCC1 [Example 97]
Solution: 720 nM

---

# EXPERIMENTAL SYSTEM: GST-JAK2(808-1132) (Homo sapiens, UniProt O60674)
# Construct: GST-JAK2(808-1132); purchased Invitrogen (Carlsbad, USA) #4288
# Sequence (O60674 808-1132): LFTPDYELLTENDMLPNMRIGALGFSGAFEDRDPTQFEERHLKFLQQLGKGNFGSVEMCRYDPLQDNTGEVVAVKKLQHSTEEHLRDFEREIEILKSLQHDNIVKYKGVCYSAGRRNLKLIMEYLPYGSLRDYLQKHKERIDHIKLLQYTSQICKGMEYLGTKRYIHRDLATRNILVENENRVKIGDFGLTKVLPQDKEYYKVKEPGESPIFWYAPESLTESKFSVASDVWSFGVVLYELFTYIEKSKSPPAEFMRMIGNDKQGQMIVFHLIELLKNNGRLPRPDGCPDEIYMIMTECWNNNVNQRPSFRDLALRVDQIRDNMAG
# PROTOCOL NOTES: EPK JAK-family kinases profiling assay (Caliper mobility shift), JAK2
# Assay type: biochemical
# ASSAY CONDITIONS: ATP 20 μM, 1.8 nM kinase
ASSAY READOUT: IC50 (nM)
# value in nM; strip the unit string

Cc1cc(-c2cnc3cccc(-c4cc(F)c(CN5CCOCC5)c(F)c4)c3n2)ccc1C(=O)NCCO :: 13
CCOc1ccc(-c2cnc3cccc(-c4ccc(CN5CCS(=O)(=O)CC5)c(C)c4)c3n2)cc1OCC :: 84
Cc1cc(-c2cnc3cccc(-c4ccc(CC(=O)N5CCOCC5)cc4)c3n2)ccc1C(=O)N1CCN(C)CC1 :: 6.3

Lab note: next compound to report on.
Problem: Record request: IC50 value, item O=C(c1c(F)cc(-c2cccc3ncc(-c4cnn(C5CCOCC5)c4)nc23)cc1F)N1CCOCC1
Solution: 9.85

---

# EXPERIMENTAL SYSTEM: GST-JAK2(808-1132) (Homo sapiens)
# Construct: GST-JAK2(808-1132); purchased Invitrogen (Carlsbad, USA) #4288
# PROTOCOL NOTES: EPK JAK-family kinases profiling assay (Caliper mobility shift), JAK2
# Type: biochemical
# ASSAY CONDITIONS: ATP 20 μM, 1.8 nM kinase
ASSAY READOUT: pIC50
Answer as the number alone; pIC50 is minus log10 of concentration in mol/L.

Example entries and their recorded answers appear below.
CCN1CCN(C(=O)c2ccc(-c3cnc4cccc(-c5ccc(C(C)(C)N6CCOCC6)c(C)c5)c4n3)cc2C)CC1 :: 7.12
CN1CCN(c2ccc(-c3cnc4cccc(-c5cc(F)c(C(=O)N6CCOCC6)c(F)c5)c4n3)cc2)CC1 :: 7.47
CCNS(=O)(=O)c1ccc(-c2cccc3ncc(-c4cc(OC)c(OC)c(OC)c4)nc23)cc1 :: 7.02
CC(C)(C)OC(=O)N1CCC(n2cc(-c3cnc4cccc(-c5cc(F)c(CN6CCOCC6)c(F)c5)c4n3)cn2)CC1 :: 8.34
CS(=O)(=O)c1ccc(-c2cccc3ncc(-c4cnn(C5CCNCC5)c4)nc23)cc1 :: 7.60

Problem: Look at this compound and give its reported pIC50. Cc1cc(-c2cnc3cccc(-c4ccc(C(=O)N5CCCC5)c(C)c4)c3n2)ccc1C(=O)N1CCCC1
Solution: 6.96

Problem: Would you kindly share the measured pIC50 for COCCOC(=O)N1CCC(n2cc(-c3cnc4cccc(-c5cc(F)c(CN6CCOCC6)c(F)c5)c4n3)cn2)CC1 ?
Solution: 8.03
